PARAMETER: boiling point
Answer with the value and then the unit.

O=C(c1ccccc1)c1ccc(Cl)cc1 ... 332 °C

State the recorded boiling point for this entry: FC(F)(F)C(Cl)CCl (stereo not given)
76.9 °C

State the recorded boiling point for this entry: `CCN(CC)C(=O)c1cccnc1`
298 °C

State the recorded boiling point for this entry: `CCOC(=O)C(C(C)=O)C(=O)OCC`
232 °C

State the recorded boiling point for this entry: `CC(c1ccc(Cl)cc1)c1ccc(Cl)cc1`
320 °C

State the recorded boiling point for this entry: `C[C@@H]1CC[C@H]2[C@@H]1[C@H]1[C@@H](CC[C@@]2(C)O)C1(C)C`
292 °C

State the recorded boiling point for this entry: `Cc1cc(C)cc(CO)c1`
220 °C

State the recorded boiling point for this entry: `CCCCC=C(C)C`
123 °C

State the recorded boiling point for this entry: `CC(=O)CCc1ccco1`
203 °C

State the recorded boiling point for this entry: `Cc1ccccc1CC(C)C`
196 °C

State the recorded boiling point for this entry: `FC(F)(F)CC(F)(F)F`
-1.1 °C

State the recorded boiling point for this entry: `C=CCOC(=O)OCC=C`
142 °C

State the recorded boiling point for this entry: `CC=Cc1ccc(OC)c(OC)c1`
270 °C

State the recorded boiling point for this entry: `Brc1ccccc1-c1ccccc1`
297 °C

State the recorded boiling point for this entry: CC(C)=CCCC(C)O (stereo not given)
175 °C

* * *

PARAMETER: melting point (°C)
Numbers only here, please. The scale is °C.

Please review the following examples before continuing.
CC(=O)Oc1ccc(OC(C)=O)cc1 ... 124
c1ccc([As](c2ccccc2)c2ccccc2)cc1 ... 61
c1ccc2c(c1)ccc1c3ccccc3sc21 ... 189
CCN(CC)CCOC(=O)c1ccc(N)cc1.Cl ... 156
Brc1ccc2ncccc2c1 ... 24

State the recorded melting point for this entry: `O=C1c2ccc(O)c(O)c2C(=O)c2ccc(O)c(O)c21`
340

* * *

PARAMETER: log10 Koc (L/kg)
Lab note: write the figure by itself, no unit.

Please review the following examples before continuing.
COC(=O)Nc1ccccc1 ... 1.73
Clc1ccccc1-c1ccccc1Cl ... 3.92
O=[N+]([O-])c1ccc(Oc2ccc(Cl)cc2Cl)cc1 ... 4

State the recorded log10 Koc (L/kg) for this entry: `O=[N+]([O-])c1c(Cl)c(Cl)cc(Cl)c1Cl`
4.05

State the recorded log10 Koc (L/kg) for this entry: CC(CCl)OC(C)CCl (stereo not given)
1.67

* * *

PARAMETER: log10 vapour pressure (mmHg)
Lab note: write the figure by itself, no unit.

CCCCCCCCC ... 0.648
c1ccc2cc3cc4ccccc4cc3cc2c1 ... -8.6
Brc1cccc2c1Oc1cccc(Br)c1O2 ... -5.95
CC1OC(C)OC(C)O1 (centres undefined) ... 1.04
C=CCCCCCCCCCCCCCCC ... -3.34
CCOP(=S)(OCC)SCSCC ... -3.2
COCC(=O)O ... -0.839
CCCC(=O)OC(=O)CCC ... -0.548

State the recorded log10 vapour pressure (mmHg) for this entry: `CC(C)OC=O`
2.14

State the recorded log10 vapour pressure (mmHg) for this entry: `CCCCCCCCCCCCCCCCCCC`
-4.31

State the recorded log10 vapour pressure (mmHg) for this entry: `CCCCCCCC`
1.15

State the recorded log10 vapour pressure (mmHg) for this entry: `CC(C)C(C)(C)C(C)C`
0.946

State the recorded log10 vapour pressure (mmHg) for this entry: `CC(=O)I`
1.51

State the recorded log10 vapour pressure (mmHg) for this entry: `CNC(=O)CSP(=S)(OC)OC`
-4.73

* * *

PARAMETER: melting point (°C)
Numbers only here, please. The scale is °C.

Please review the following examples before continuing.
O=C(Nc1ccc2nn(C3CCCCC3)nc2c1)c1ccccc1 ... 212
O=CF ... -142
CN1CCN(CCCN2c3ccccc3Sc3ccc(Cl)cc32)CC1 ... 228
O=NN(c1ccccc1)c1ccccc1 ... 66.5
O=C=O ... -56.5
COP(=O)(OC)O/C(=C\Cl)c1ccc(Cl)cc1Cl ... 69.5

Switching to the query record.
State the recorded melting point for this entry: `CC(C)C(=O)O`
-46

* * *

Below, each of the compounds is paired with its reported boiling point value.
Numbers only here, please. The scale is °C.

CC1(C)CC(N)CC(C)(CN)C1 (centres undefined) ... 247
ClC(Cl)=C(Cl)C(Cl)(Cl)Cl ... 210
CC(=O)CC(C)=O ... 138

Switching to the query record.
State the recorded boiling point for this entry: `CCCCCCSCCCCCC`
230

* * *

PARAMETER: log10 vapour pressure (mmHg)

Please review the following examples before continuing.
O=C(O)COc1ccc(Cl)cc1Cl ... -4.08
Cc1cc(OC(=O)N(C)C)nn1C(=O)N(C)C ... -4.01

Switching to the query record.
State the recorded log10 vapour pressure (mmHg) for this entry: `Cc1ccc(Br)cc1`
0.0607

* * *

PARAMETER: boiling point (°C)
Numbers only here, please. The scale is °C.

Please review the following examples before continuing.
Brc1ccc(-c2ccccc2)cc1 ... 310
CCC(Cl)C(C)Cl (stereo not drawn) ... 139
CCCCCCCCN ... 180

State the recorded boiling point for this entry: `CCCCCCN(CCCCCC)CCCCCC`
262

State the recorded boiling point for this entry: `CCCCN1CCCC1`
154

State the recorded boiling point for this entry: `FC(F)(F)c1ccc(Cl)cc1`
138

State the recorded boiling point for this entry: CCCC(C)CO (stereo not drawn)
149

State the recorded boiling point for this entry: `CCCCCCCCCCCCCCCCCCCCCCCCCCCC`
432

* * *

API: label(entry) gives met if the entry's melting point is strictly smaller than 100 °C; on equality or larger values it gives not met.

Observe how each entry below is paired with its result.
FC(F)(F)Cl ... met
c1ccc(-n2cccc2)cc1 ... met
C=CC(OC(C)=O)OC(C)=O ... met
Cc1c(Cl)cc(-c2ccc(O)nn2)cc1Cl ... not met

In the record for `Nc1ccc(C(=O)NCC(=O)O)cc1` , is melting point less than 100 °C?
not met

In the record for `c1ccc2nc3ccccc3cc2c1` , is melting point less than 100 °C?
not met

* * *

Below, each of the compounds is paired with its reported log10 Henry constant (atm·m³/mol) value.
Lab note: write the figure by itself, no unit.

Please review the following examples before continuing.
FC(F)F ... -1.02
Cc1ccc(O)cc1 ... -6
O=C(O)CBr ... -8.19
CCCC(C)=O ... -4.08
C=C(C)C=O ... -3.63
CCOC(C)=O ... -3.87
C[Si](C)(C)O[Si](C)(C)O[Si](C)(C)C ... 1.49
Clc1ccc(Cl)c(-c2c(Cl)ccc(Cl)c2Cl)c1Cl ... -4.06

State the recorded log10 Henry constant (atm·m³/mol) for this entry: `CC(C)C(=O)O`
-6.05

State the recorded log10 Henry constant (atm·m³/mol) for this entry: `Clc1ccc(Cl)c(-c2ccc(Cl)c(Cl)c2)c1`
-4

State the recorded log10 Henry constant (atm·m³/mol) for this entry: `CC(=O)OCC(C)C`
-3.34

State the recorded log10 Henry constant (atm·m³/mol) for this entry: `CC(=O)OO`
-5.67

State the recorded log10 Henry constant (atm·m³/mol) for this entry: `Nc1ccccc1[N+](=O)[O-]`
-7.23

State the recorded log10 Henry constant (atm·m³/mol) for this entry: `O=[N+]([O-])c1cccc(Cl)c1`
-4.87

State the recorded log10 Henry constant (atm·m³/mol) for this entry: `CCCCSP(=O)(SCCCC)SCCCC`
-6.53

State the recorded log10 Henry constant (atm·m³/mol) for this entry: `Cc1ccccc1[N+](=O)[O-]`
-4.9

* * *

API: label(entry) gives 1 if the entry's melting point is strictly smaller than 100 °C; on equality or larger values it gives 0.

CC(=O)N1CCCC(C)C1 (stereo not drawn) ... 1
Oc1ccc2cc(Cl)ccc2c1 ... 0
CCCCCC(=O)OCC(COC(=O)CCCCC)OC(=O)CCCCC ... 1

In the record for `COc1ccc(C(=O)NCc2cccnc2)cc1C(=O)NCc1cccnc1` , is melting point less than 100 °C?
0

In the record for `Oc1ccccc1-c1nc2ccccc2s1` , is melting point less than 100 °C?
0

In the record for `c1ccc(N(c2ccccc2)c2ccccc2)cc1` , is melting point less than 100 °C?
0

* * *

PARAMETER: log10 vapour pressure (mmHg)

C1CO1 ... 3.12

State the recorded log10 vapour pressure (mmHg) for this entry: `CSC`
2.7

State the recorded log10 vapour pressure (mmHg) for this entry: `CC(C)(C)NCCNC(C)(C)C`
-0.575

State the recorded log10 vapour pressure (mmHg) for this entry: `COc1cc(OC)nc(N=C(O)NS(=O)(=O)c2c(Cl)nc3ccccn23)n1`
-9.47

State the recorded log10 vapour pressure (mmHg) for this entry: `FC(F)OCC(F)(F)F`
2.81
